# maps each entry to its melting point

// melting point lookup, key: CC(C)OP(=O)(OC(C)C)c1cccc2c(-c3ccc(F)cc3)cc(-c3ccc(F)c(F)c3)nc12 144 to 146 °C

// melting point lookup, key: CCOP(=O)(OCC)c1cccc2c(-c3ccccc3)cc(-c3ccc(F)cc3)nc12 116 to 118 °C

----------
# maps each entry to its IC50
Tested on: HEK293 (human embryonic kidney)
Assay: CCK-8 cytotoxicity assay, HEK293
Type: cell-based
Conditions: HEK293, 48 h, CCK-8, 50% growth inhibition
Write down the numeric answer in µM and omit the unit.

// IC50 lookup, key: CC(C)OP(=O)(OC(C)C)c1cccc2c(-c3ccccc3)cc(-c3ccc(F)cc3)nc12 [7l] 10.1

// IC50 lookup, key: CCOP(=O)(OCC)c1cccc2c(-c3ccccc3)cc(-c3cccc4ccccc34)nc12 [7f] 35.7

// IC50 lookup, key: CCOP(=O)(OCC)c1cccc2c(-c3ccc(F)cc3)cc(-c3ccccc3)nc12 [7g] 24.4

// IC50 lookup, key: CCOP(=O)(OCC)c1cccc2c(-c3ccccc3)cc(-c3ccc4ccccc4c3)nc12 [7e] 48.1

// IC50 lookup, key: CCOP(=O)(OCC)c1ccc2nc(-c3ccc(F)c(F)c3)cc(-c3ccccc3)c2c1 [7s] 19.2

// IC50 lookup, key: Cc1ccc(-c2cc(-c3ccc(F)c(F)c3)nc3c(P(=O)(OC(C)C)OC(C)C)cccc23)cc1 [7q] 12.3
